- target_system: memapsin 2 (Homo sapiens)
- Sequence (P56817 46-501): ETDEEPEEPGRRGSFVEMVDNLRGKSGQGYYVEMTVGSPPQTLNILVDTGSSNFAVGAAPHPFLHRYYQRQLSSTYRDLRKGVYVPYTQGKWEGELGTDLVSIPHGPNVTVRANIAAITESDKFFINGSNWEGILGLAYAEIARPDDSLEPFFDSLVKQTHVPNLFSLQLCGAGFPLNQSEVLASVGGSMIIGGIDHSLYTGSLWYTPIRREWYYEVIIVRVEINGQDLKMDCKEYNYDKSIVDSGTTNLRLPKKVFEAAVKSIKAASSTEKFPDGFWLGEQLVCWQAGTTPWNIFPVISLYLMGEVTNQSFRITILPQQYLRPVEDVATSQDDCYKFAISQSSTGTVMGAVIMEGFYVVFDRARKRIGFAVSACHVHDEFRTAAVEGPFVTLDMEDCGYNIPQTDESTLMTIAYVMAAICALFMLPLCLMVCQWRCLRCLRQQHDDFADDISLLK
- protocol_text: Inhibition of memapsin 2 catalytic activity (Ki)
- Format: biochemical
- conditions_used: M2K, memapsin 2, pH 4, 37° C.
pKi: −log10 of the molar value.
measurement_name: pKi

Consider the compound COc1cccc(CNCC(O)C(Cc2ccccc2)NC(=O)c2cccc(C(=O)N(C)Cc3nc(C)co3)c2)c1 (stereo not shown) and give its measured pKi.
> 6.52

----------
Ki overview
- target_system: memapsin 2 (Homo sapiens)
- protocol_text: Inhibition of memapsin 2 catalytic activity (Ki)
- Format: biochemical
- conditions_used: memapsin 2, pH 4, 37° C.; read-out: M2K

CC(NC(=O)c1cc(C(=O)NC(Cc2ccccc2)C(O)CNCc2cccc(OC(F)(F)F)c2)cc(N(C)S(C)(=O)=O)c1)c1ccccc1 (stereo not shown) = < 300 nM

Query the reported Ki for memapsin 2 (Homo sapiens); item: COc1cccc(CNCC(O)C(Cc2ccccc2)NC(=O)c2cccc(C(=O)N(C)Cc3nc(C)cs3)c2F)c1 (stereo not shown)
> 501 nM

Also need COc1cc(CCCNCC(O)C(Cc2ccccc2)NC(=O)c2cc(C(=O)NC(C)c3ccccc3)cc(N(C)S(C)(=O)=O)c2)ccc1C (stereo not shown) , thanks.
< 300 nM

Likewise for CC(NC(=O)c1cc(C(=O)NC(Cc2ccccc2)C(O)CNCCN2CCCCC2)cc(N(C)S(C)(=O)=O)c1)c1ccccc1 (stereo not shown) ?
> 501 nM

Also CC(NC(=O)c1cc(C(=O)NC(Cc2ccccc2)C(O)CNCC2CCCN2C(C)C)cc(N(C)S(C)(=O)=O)c1)c1ccccc1 (stereo not shown) , if possible.
> 501 nM

How about this molecule: COc1ccccc1CNCC(O)C(Cc1ccccc1)NC(=O)c1cccc(C(=O)N(C)Cc2nc(C)cs2)c1 (stereo not shown)
> 501 nM

Repeat with Cc1csc(CN(C)C(=O)c2cccc(C(=O)NC(Cc3ccccc3)C(O)CNCc3cccc(CC(C)C)c3)c2)n1 (stereo not shown)
< 300 nM

----------
- target_system: memapsin 2 (Homo sapiens)
- protocol_text: Inhibition of memapsin 2 catalytic activity (Ki)
- Assay type: biochemical
- conditions_used: memapsin 2, pH 4, 37° C.; read-out: M2K
measurement_name: Ki

As a guide, the following entries are already answered.
COc1cccc(CNCC(O)C(Cc2ccccc2)NC(=O)c2cccc(C(=O)N(C)Cc3cnccn3)c2)c1 (centres unmarked) = > 501 nM
Cc1csc(CN(C)C(=O)c2cccc(C(=O)NC(Cc3ccccc3)C(O)CNCc3cccc(CF)c3)c2)n1 (centres unmarked) = < 300 nM
COc1cccc(CNCC(O)C(Cc2ccccc2)NC(=O)c2cccc(C(=O)N(Cc3nc(C)cs3)C3CC3)c2)c1 (centres unmarked) = < 300 nM

Form field: Ki recorded for CC(C)c1cncc(CNCC(O)C(Cc2ccccc2)NC(=O)c2cc(C(=O)NC(C)c3ccccc3)cc(N(C)S(C)(=O)=O)c2)c1 (centres unmarked) with memapsin 2 (Homo sapiens) (enter value)
< 300 nM

Next entry: COc1ccccc1CCNCC(O)C(Cc1ccccc1)NC(=O)c1cccc(C(=O)N(C)Cc2nc(C)cs2)c1 (centres unmarked)
> 501 nM

What about COc1cccc(CNCC(O)C(Cc2ccccc2)NC(=O)c2cccc(C(=O)N(Cc3nc(C)cs3)N(C)C)c2)c1 (centres unmarked) ?
> 501 nM

Again, but for C#Cc1cccc(CNCC(O)C(Cc2ccccc2)NC(=O)c2cc(C(=O)NC(C)c3ccccc3)cc(N(C)S(C)(=O)=O)c2)c1 (centres unmarked)
< 300 nM

COc1cccc(CNCC(O)C(Cc2ccccc2)NC(=O)c2cccc(C(=O)N(Cc3nc(C)cs3)CC(C)C)c2)c1 (centres unmarked) ?
< 300 nM

The reported measurements were obtained from patent US7504420B2.
